The reported numbers originate from patent US20030113665A1.

- protocol-details: UV absorption spectra in solution
- Format: physicochemical
- test-context: in dioxane (Tables 1-3)
- Description: […] The absorption spectra are measured for example in solution. […]
measurement-type: λmax (nm)
Numeric only. Scale: nm

Use these answered entries as a reference point.
[
  {
    "structure-as-smiles": "C=C1N(C)c2ccccc2C1(C)C",
    "endpoint-unit": "nm",
    "λmax": 499
  },
  {
    "structure-as-smiles": "C=C1N(CCCCN2C(=C)C(C)(C)c3ccccc32)c2ccccc2C1(C)C",
    "endpoint-unit": "nm",
    "λmax": 500
  },
  {
    "structure-as-smiles": "C=C1N(C)c2ccc(C)cc2C1(C)C",
    "endpoint-unit": "nm",
    "λmax": 503
  },
  {
    "structure-as-smiles": "Cc1cnc(N(C)C)s1",
    "endpoint-unit": "nm",
    "λmax": 470
  }
]

Prompt line: Item "CN1/C(=C\C=C(\C#N)c2nc3ccccc3s2)C(C)(C)c2ccccc21" has what recorded λmax?
Response line: 462
